# test-description: chemical genetic growth profiling, strain panel (AID 1159580);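 note: tested at 20 µM; growth read once vehicle control cultures reached saturation at 30 °C; 1 = growth at the plate median or of vehicle wells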
# measurement-parameters: S. cerevisiae deletion strains, growth OD, locus YDL035C, strain GPR1, stronger effect = lower value
Screen size: about 5,500 compounds; about 2,000 (36%) were called active. About 18% were inconclusive and are not listed. This is one part of the list.
test-readout: normalized growth

- compound: "COc1cc(C)c2c(=O)cc(-c3ccccc3)oc2c1"
  recorded-value: "1.01 (inactive)"
- compound: "C[C@]12C=CC(=O)C=C1CCC1C2[C@@H](O)C[C@@]2(C)C1CC[C@]2(O)C(=O)CO (stereo partly specified)"
  recorded-value: "0.998 (inactive)"
- compound: "COc1cc(OC)c2c(=O)cc(-c3ccccc3)oc2c1"
  recorded-value: "0.864 (inactive)"

Lab note: "NC1(C(=O)O)CC1" gave normalized growth of 1.03 (inactive)

Lab note: "NC1(C(=O)O)CCC1" gave normalized growth of 0.956 (inactive)

Lab note: CCN1C[C@@]2(COC)C3[C@@H](OC)[C@H]4[C@@H]1[C@]3(C(OC)C[C@H]2O)C1C[C@@]2(O)[C@H](OC(=O)c3ccccc3)C1[C@]4(OC(C)=O)[C@@H](O)[C@@H]2OC (stereo partly specified) gave normalized growth of 1.03 (inactive)

----------
Measured normalized growth values are reported for all entries that follow.
# test-description: chemical genetic growth profiling, strain panel (AID 1159580)
# measurement-parameters: S. cerevisiae deletion strains, growth OD, locus YDR334W, strain swr1, stronger effect = lower value
About 2,000 (36%) of roughly 5,500 compounds were called active. Not shown: some 18% with an inconclusive outcome. Some of the results follow.
Please give only the number in your answer, with no unit.

- compound: "CC(C)c1nc(N(C)S(C)(=O)=O)nc(-c2ccc(F)cc2)c1/C=C/[C@@H](O)C[C@@H](O)CC(=O)O"
  recorded-value: 0.982
- compound: "C[C@]12CCC3c4ccc(OC(=O)c5ccccc5)cc4CCC3C1CCC2=O (stereo not given in full)"
  recorded-value: 0.986
- compound: "CC(=O)Oc1ccc2c(c1)CCC1C2CC[C@]2(C)C(=O)CCC12 (stereo not given in full)"
  recorded-value: 0.984
- compound: "C[C@]12CCC3c4ccc(O)cc4CCC3C1CCC2=O (stereo not given in full)"
  recorded-value: 1.02

Here's the next entry for you.
Lab note: "Cc1oncc1C(=O)Nc1ccc(C(F)(F)F)cc1" gave normalized growth of 0.991

----------
# test-description: chemical genetic growth profiling, strain panel (AID 1159580)
# measurement-parameters: S. cerevisiae deletion strains, growth OD, locus YDR159W, strain sac3, stronger effect = lower value
Hit rate of the full screen: of about 5,500 compounds, about 2,000 (36%) were called active. Another 18% or so got no clear call; they are omitted. This is one part of the list.
Values of normalized growth strictly less than 1 map to criterion met, and values of at least 1 map to criterion not met.

Past entries and their recorded results:
- compound: "O=C(O)[C@@H](S)[C@@H](S)C(=O)O"
  class: "criterion met"
- compound: "CC(=O)O[C@@H]1CC2C(C)(C)C(=O)C3OC3[C@]2(C)C2CC[C@@]3(C)[C@H](c4ccoc4)OC(=O)C4OC43[C@@]21C (stereo not given in full)"
  class: "criterion met"

Lab note: normalized growth threshold 1. Does this compound come in strictly under it? NC(C(=O)O)C(O)C(=O)O (stereo not given) criterion not met

Lab note: normalized growth threshold 1. Does this compound come in strictly under it? CC(=O)O[C@@H]1CC2C(C)(C)[C@H](O)CC[C@]2(C)C2CC[C@@]3(C)[C@H](c4ccoc4)OC(=O)C4OC43[C@@]21C (stereo not given in full) criterion not met

Lab note: normalized growth threshold 1. Does this compound come in strictly under it? COc1ccc2c(c1)OCC(Cc1ccc(O)c(OC)c1)C2=O (stereo not given) criterion met

Lab note: normalized growth threshold 1. Does this compound come in strictly under it? "Cc1cc(/C=C/c2ccc3cc(N(C)C)ccc3[n+]2C)c(C)n1-c1ccccc1" criterion not met

Lab note: normalized growth threshold 1. Does this compound come in strictly under it? COc1ccc2c(c1)OCC(Cc1ccc(OC)c(OC)c1)C2=O (stereo not given) criterion met

Lab note: normalized growth threshold 1. Does this compound come in strictly under it? C[C@]12CCC3c4ccc(O)cc4CCC3C1CCC2=O (stereo not given in full) criterion met

----------
# test-description: chemical genetic growth profiling, strain panel (AID 1159580)
# measurement-parameters: S. cerevisiae deletion strains, growth OD, locus YDL035C, strain GPR1
Among all 5,500 compounds or so, about 2,000 (36%) were called active. About 18% were inconclusive and are not listed. No stated cut-off is given here; in the data, active means normalized growth mostly below about 0.91 (no sharp cut-off); inconclusive means no clear call, values can overlap the other calls; inactive means mostly above about 0.92. The list shows a part of the results.
I would appreciate it if you answered using one of these outcomes: YES (active), NO (inactive)

Past entries and their recorded results:
- molecule: "FC(F)(F)c1cccc(N2CCNCC2)c1"
  class: "NO"
- molecule: "C=C[C@@]1(C)CC(=O)[C@@]2(O)[C@](C)(O1)[C@@H](OC(C)=O)[C@@H](O)C1C(C)(C)CC[C@H](O)[C@@]12C (stereo partly drawn)"
  class: "NO"
- molecule: "COc1ccc2oc(-c3ccccc3)c(OC)c(=O)c2c1"
  class: "YES"

Fill in: this test's call for COc1ccc2c(c1)OCC(Cc1ccc(OC)c(O)c1)C2=O (stereo not drawn) is ___ NO

Fill in: this test's call for "N[C@@H](C(=O)O)[C@@H](O)[C@H](O)[C@H](O)CO" is ___ NO

Fill in: this test's call for "OC[C@H]1O[C@@H](n2cnc3c(NCc4ccco4)ncnc32)[C@H](O)[C@@H]1O" is ___ NO

Fill in: this test's call for CC1[C@H](C)OC(=O)CC(O)CC(O)CC(O)CCC(O)C(O)C[C@]2(O)CC(O)C(C(=O)O)C(CC(OC3O[C@H](C)[C@@H](O)[C@H](N)[C@@H]3O)/C=C/C=C/C=C/C=C/CC/C=C/C=C/[C@H](C)[C@H]1O)O2 (stereo partly drawn) is ___ YES

Fill in: this test's call for "O=NN(CCCl)C(=O)NCCCl" is ___ NO

Fill in: this test's call for "CC(=O)NCCc1c[nH]c2ccc(O)cc12" is ___ NO

Fill in: this test's call for CC(C)/C(O)=C1/C(=O)O[C@@H](c2ccoc2)[C@]2(C)C(O)[C@@H](O)[C@@]34OC5(C)OC67CC(C)(C(O)[C@]6(O)[C@@H](O)[C@]3(O5)C12)[C@H](CC(=O)O)[C@]74C (stereo partly drawn) is ___ NO

Fill in: this test's call for O=C(O)C1CCCNC1 (stereo not drawn) is ___ NO

Fill in: this test's call for "NC(N)=NCCN1CCCCCCC1" is ___ NO

----------
# test-description: chemical genetic growth profiling, strain panel (AID 1159580);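 note: tested at 20 µM; growth read once vehicle control cultures reached saturation at 30 °C; 1 = growth at the plate median or of vehicle wells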
# measurement-parameters: S. cerevisiae deletion strains, growth OD, locus YMR078C, strain ctf18, stronger effect = lower value
Screen size: about 5,500 compounds; about 2,000 (36%) were called active. Not shown: some 18% with an inconclusive outcome. The list shows a part of the results.
test-readout: normalized growth
Please give only the number in your answer, with no unit.

- compound: "Cc1nnc(NS(=O)(=O)c2ccc(N)cc2)s1"
  normalized growth: 0.991
- compound: "C[C@]12CCC3c4ccc(O)cc4CCC3C1CCC2=O (some centres not stated)"
  normalized growth: 0.987

Lab note: "COc1ccc(-c2cc(=O)c3c(OC)cc(OC)cc3o2)cc1" gave normalized growth of 0.988

Lab note: "Cc1oncc1C(=O)Nc1ccc(C(F)(F)F)cc1" gave normalized growth of 1

Lab note: CC(=O)OCC(=O)[C@@]1(O)CCC2C3CCC4=CC(=O)C=CC4(C)C3[C@@H](O)C[C@@]21C (some centres not stated) gave normalized growth of 1.01

----------
# test-description: chemical genetic growth profiling, strain panel (AID 1159580);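 note: tested at 20 µM; growth read once vehicle control cultures reached saturation at 30 °C; 1 = growth at the plate median or of vehicle wells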
# measurement-parameters: S. cerevisiae deletion strains, growth OD, locus YGL248W, strain PDE1, stronger effect = lower value
In all, about 5,500 compounds went through this assay and about 2,000 (36%) were called active. Roughly 18% stayed inconclusive and do not appear here. The list shows a part of the results.
Values of normalized growth strictly less than 1 map to True, and values of at least 1 map to False.

Past entries and their recorded results:
- compound: "C[C@]12CCC3C(CC[C@H]4C[C@H](O)CC[C@]34C)C1CC[C@@H]2O (some centres not stated)"
  class: "True"
- compound: "COc1c(C)c2c(c(O)c1C/C=C(\\C)CCC(=O)O)C(=O)OC2"
  class: "True"

Continue with the next compound.
Lab note: normalized growth threshold 1. Does this compound come in strictly under it? CC(=O)C1CCC2C3CCC4C[C@H](O)CCC4(C)C3C[C@H](O)C12C (some centres not stated) False

----------
Measured normalized growth values are reported for all entries that follow.
# test-description: chemical genetic growth profiling, strain panel (AID 1159580);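 note: tested at 20 µM; growth read once vehicle control cultures reached saturation at 30 °C; 1 = growth at the plate median or of vehicle wells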
# measurement-parameters: S. cerevisiae deletion strains, growth OD, locus YPR141C, strain kar3, stronger effect = lower value
In all, about 5,500 compounds went through this assay and about 2,000 (36%) were called active. Not shown: some 18% with an inconclusive outcome. The list shows a part of the results. Where a SMILES comes first, the peptide text is derived from it.
Please give only the number in your answer, with no unit.

Lab note: CCC(=O)OC1[C@@H]2CC3=C4CC(=O)O[C@@H](c5ccoc5)[C@]4(C)CCC3[C@@](C)(C2=O)[C@@H](CC(=O)OC)C1(C)C (some centres not stated) gave normalized growth of 1.01

Lab note: CC(=O)OC1CC(O)C(C)(C)C2CC(=O)C3(C)C(CCC4(C)C(c5ccoc5)OC(=O)C5OC543)C12C (configuration not stated) gave normalized growth of 0.987

Lab note: "FC(F)(F)c1cccc(N2CCNCC2)c1" gave normalized growth of 0.988

Lab note: COc1ccc(CCC(=O)c2c(O)cc(O[C@@H]3O[C@H](CO)C(O)[C@H](O)C3O[C@@H]3O[C@@H](C)[C@H](O)[C@@H](O)[C@H]3O)cc2O)cc1O (some centres not stated) gave normalized growth of 0.986

Lab note: COC(=O)[C@@H]1OC(=O)C2OC23[C@@]1(C)CCC1[C@]2(C)C(C[C@@H](O)[C@]13C)C(C)(C)[C@H](OC(C)=O)C[C@@H]2OC(C)=O (some centres not stated) gave normalized growth of 1

Lab note: CC(=O)N[C@@H](CC(=O)O)C(=O)N[C@@H](CCC(=O)O)C(=O)O (Ac-Asp-Glu-OH) gave normalized growth of 0.995

Lab note: COC[C@]12CN(C=O)C3[C@@H]4[C@H](OC)C1[C@]3(C1CC3(O)C(OC)C(O)C4(OC(C)=O)C1C3OC(=O)c1ccccc1)[C@@H](OC)C[C@H]2O (some centres not stated) gave normalized growth of 0.998
